Every entry's value here was drawn from the supplement of paper PMC6555819.

Tested on: PPARg DBDmut:RXRa IVT, anti-PPARg (DBD mutation: PPARg1 K132A/R137A, NR concentration 270 nM, RXRa partner concentration 90 nM)
experiment-summary: PBM binding z-score (relative to random genomic background probes); higher = stronger binding; sequences stand for … in GC…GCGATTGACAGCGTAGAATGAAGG
value-type: PBM binding z-score

monomer-sequence	reported-value
ACTAGTCGGTCAGCTGAGGTCACACACAATTCGG	0.395
TCTTGTAGATCAACAGGAGGTTAAGAAAGATCGA	0.392
CTCGAAAGGTCGGTTGAGGTGGGTATACGGATAA	-0.122
AGAATGAGGTTAAGATCAGGGATACAGAATACAT	0.847
GCATATAGGAAATACAAGGTGAAAGTCCGATTGT	-0.0022
CCGACTGGGGCAAGGTTCCCATAACGCACAGCCA	-0.684
AGTCAAAGTTCACTAGGAAACGTAAGATTCAGCT	1.13
GCGACTGGGGCATCAGCAGGTTGCCATAACTTAA	0.246
TCTTGTAGATCAGCAGGAGGTTAAGAAAGATCGA	0.985
GCTGCTAGGTCAGGTTGGGCAGCTAACGGGTACG	-0.639
CGTCAAAGTTCAAGGTAACATAACAGAAAGCAGC	0.987
CTGGAAAGGTCGGTTGAGGTGAGTATACGGATAA	-0.556
TCGAGTAGGTTAACAATGGGGCATTCAGCTTTCT	0.124

---

Tested on: PPARg:RXRa IVT, anti-PPARg (NR concentration 270 nM, RXRa partner concentration 90 nM)
experiment-summary: PBM binding z-score (relative to random genomic background probes); higher = stronger binding; sequences stand for … in GC…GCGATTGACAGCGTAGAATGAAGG
value-type: PBM binding z-score

monomer-sequence	reported-value
CCTAGTAGTTGACCATAAGGGCAACCGAAGCTCG	0.506
CGAACTAGGTCATTGACAGGACAGCGAATAGTAA	7.96
TCGAGTAGGTTAGTCGGGGCACTCAGCCAACATA	2.16

---

System: PPARg homodimer (NR concentration 180 nM)
experiment-summary: PBM binding z-score (relative to random genomic background probes); higher = stronger binding; sequences stand for … in GC…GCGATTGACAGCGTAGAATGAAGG
Would you please tag the item condition met when its PBM binding z-score is 2 or above, and condition not met when it is below?

monomer-sequence	class-assignment
GCTATAAGTTGAAAGGGCAACCGAATGATTCTCG	condition not met
CCTATTAGTTGACCATAAGAGCAACCGAAGCTCG	condition met
CGAACTAGGTCATCCAGGCCAGTGAATACATTGA	condition met
CCTTACGGGTCACTGAGAGGTTATAGCATTTGGA	condition met
GCATATAGGTAATACAAGGCGAAAGTCCGATTGT	condition not met
TATACAGGGTTAAAGGCCAGAGTACGAATGTCGA	condition not met
TGAATCAGGTTAAAGATCAGGGAACGTGGCGTCG	condition not met
CCTACTGGGCGAAAAAGGTCATTGATGCCGATAA	condition met
TCATATAGGTAAAGGTCAAAGTCGAACGATATGA	condition met
GGAACGAGGCCAAGTTGATAGCAGAGTTTGATGG	condition not met
CCGAGTAGGTGATGGGGCATTCAGGCAACGGTGA	condition not met
ATCGAAAGGTCGAAGGTGAGTAAACCCACCCGAA	condition not met
ACTCGGAGGACAAAGGTCCGAGCTACGCCAGTGA	condition not met
CAAACTAGGTCACAGAGGTCAAAGTACGTGCGTA	condition met
GCTATTAGTTGAAATGGCAACCGAATGATTCTCG	condition not met
GCAAACAGGTGAAACGCAGGTAACTCAGGGTGGC	condition not met
CCTACTTGGCCATTCAGAGGTCATTGATCATATG	condition met
